- Protocol details: Pharmacokinetic profile / in vivo conversion after oral administration to SCID mice (plasma, LC-MS/MS)
- Design: species or system female SCID mice
- Condition notes: female, mouse, po, Drug from Example 1 administered 100 mg/kg p.o., lipid formulation, read-out: Cmax, compound measured: Drug from Example 1
Parameter measured: Cmax (ng/mL)
Express your answer in ng/mL, writing the number without its unit.

The reported Cmax of the compound `O=C(c1cc(-c2cc3c(cc2C(=O)N2Cc4ccccc4C[C@H]2CN2CCOCC2)OCO3)n2c1CCCC2)N(c1ccccc1)c1ccc(O)cc1` was 25900

###

- Protocol details: Solubility in aqueous medium buffered to physiological pH (phosphate 0.33M, pH 7.4)
- Assay type: physicochemical
- Condition notes: phosphate 0.33M, pH = 7.4; 20 μM
Parameter measured: Solubility at 20 μM

Some molecules with recorded Solubility at 20 μM:
[
  {
    "Molecular string": "Cc1c(N(C(=O)c2cc(-c3cc(Cl)ccc3C(=O)N3Cc4ccccc4C[C@H]3CN3CCOCC3)n(C)c2C)c2ccc(OP(=O)([O-])[O-])cc2)cc(C#N)n1C.[Na+].[Na+]",
    "Recorded measurement": "Soluble"
  },
  {
    "Molecular string": "[2H]C([2H])([2H])n1cc(N(C(=O)c2cc(-c3cc(Cl)ccc3C(=O)N3Cc4ccccc4C[C@H]3CN3CCOCC3)n(C)c2C)c2ccc(O)cc2)cn1",
    "Recorded measurement": "Soluble"
  },
  {
    "Molecular string": "O=C(c1cc(-c2cc3c(cc2C(=O)N2Cc4ccccc4C[C@H]2CN2CCOCC2)OCO3)n2c1CCCC2)N(c1ccccc1)c1ccc(O)cc1",
    "Recorded measurement": "Insoluble"
  },
  {
    "Molecular string": "Cc1c(N(C(=O)c2cc(-c3cc(F)ccc3C(=O)N3Cc4ccccc4C[C@H]3CN3CCOCC3)n(C)c2C)c2ccc(O)cc2)cc(C#N)n1C",
    "Recorded measurement": "Soluble"
  },
  {
    "Molecular string": "Cc1c(N(C(=O)c2cc(-c3cc(Cl)ccc3C(=O)N3Cc4ccccc4C[C@H]3CN3CCOCC3)n(C)c2C)c2ccc(O)cc2)cc(C#N)n1C",
    "Recorded measurement": "Insoluble"
  }
]

The reported Solubility at 20 μM of the molecule `Cc1c(N(C(=O)c2cc(-c3cc(F)ccc3C(=O)N3Cc4ccccc4C[C@H]3CN3CCOCC3)n(C)c2C)c2ccc(OP(=O)([O-])[O-])cc2)cc(C#N)n1C.[Na+].[Na+]` was Soluble

The reported Solubility at 20 μM of the molecule `O=C(c1cc(-c2cc3c(cc2C(=O)N2Cc4ccccc4C[C@H]2CN2CCOCC2)OCO3)n2c1CCCC2)N(c1ccccc1)c1ccc(OP(=O)([O-])[O-])cc1.[Na+].[Na+]` was Soluble

###

- Test system: human Caco-2 cells
- Protocol details: In vitro test on human Caco-2 cells, cellular transport A to B
- Format: in vitro ADME
- Condition notes: prodrug incubated, corresponding drug measured; 120 minutes
Parameter measured: Yield (experiment yield), the drug after incubation of the prodrug

[
  {
    "Molecule": "Cc1c(C(=O)N(c2ccc(OP(=O)([O-])[O-])cc2)c2cc(C#N)n(C)c2)cc(-c2cc(Cl)ccc2C(=O)N2Cc3ccccc3C[C@H]2CN2CCOCC2)n1C.[Na+].[Na+] [Example 21]",
    "Study system": "human Caco-2 cells",
    "Recorded measurement": "Yield (%) = 100"
  },
  {
    "Molecule": "Cc1c(N(C(=O)c2cc(-c3cc(Cl)ccc3C(=O)N3Cc4ccccc4C[C@H]3CN3CCOCC3)n(C)c2C)c2ccc(OP(=O)([O-])[O-])cc2)cc(C#N)n1C.[Na+].[Na+] [Example 20]",
    "Study system": "human Caco-2 cells",
    "Recorded measurement": "Yield (%) = 100"
  }
]

###

- Protocol details: Solubility in aqueous medium buffered to physiological pH (phosphate 0.33M, pH 7.4)
- Assay type: physicochemical
- Condition notes: phosphate 0.33M, pH = 7.4; 10 μM
Parameter measured: Solubility at 10 μM

[
  {
    "Molecular string": "Cc1c(N(C(=O)c2cc(-c3cc(F)ccc3C(=O)N3Cc4ccccc4C[C@H]3CN3CCOCC3)n(C)c2C)c2ccc(O)cc2)cc(C#N)n1C",
    "Solubility at 10 μM": "Soluble"
  },
  {
    "Molecular string": "[2H]C([2H])([2H])n1cc(N(C(=O)c2cc(-c3cc(Cl)ccc3C(=O)N3Cc4ccccc4C[C@H]3CN3CCOCC3)n(C)c2C)c2ccc(O)cc2)cn1",
    "Solubility at 10 μM": "Soluble"
  },
  {
    "Molecular string": "Cc1c(N(C(=O)c2cc(-c3cc(F)ccc3C(=O)N3Cc4ccccc4C[C@H]3CN3CCOCC3)n(C)c2C)c2ccc(OP(=O)([O-])[O-])cc2)cc(C#N)n1C.[Na+].[Na+]",
    "Solubility at 10 μM": "Soluble"
  },
  {
    "Molecular string": "Cc1c(N(C(=O)c2cc(-c3cc(Cl)ccc3C(=O)N3Cc4ccccc4C[C@H]3CN3CCOCC3)n(C)c2C)c2ccc(OP(=O)([O-])[O-])cc2)cc(C#N)n1C.[Na+].[Na+]",
    "Solubility at 10 μM": "Soluble"
  },
  {
    "Molecular string": "Cc1c(N(C(=O)c2cc(-c3cc(Cl)ccc3C(=O)N3Cc4ccccc4C[C@H]3CN3CCOCC3)n(C)c2C)c2ccc(O)cc2)cc(C#N)n1C",
    "Solubility at 10 μM": "Soluble"
  }
]

Next up:
The reported Solubility at 10 μM of the compound `O=C(c1cc(-c2cc3c(cc2C(=O)N2Cc4ccccc4C[C@H]2CN2CCOCC2)OCO3)n2c1CCCC2)N(c1ccccc1)c1ccc(OP(=O)([O-])[O-])cc1.[Na+].[Na+]` was Soluble

###

- Protocol details: Pharmacokinetic profile / in vivo conversion after oral administration to SCID mice (plasma, LC-MS/MS)
- Parameters: species or system female SCID mice
- Condition notes: female, mouse, po, Drug from Example 1 administered 3 mg/kg p.o., lipid formulation (ethanol/PEG 300/water 10/40/50), read-out: Cmax, compound measured: Drug from Example 1
Parameter measured: Cmax (µg/mL)
Express your answer in µg/mL, writing the number without its unit.

The reported Cmax of the compound `O=C(c1cc(-c2cc3c(cc2C(=O)N2Cc4ccccc4C[C@H]2CN2CCOCC2)OCO3)n2c1CCCC2)N(c1ccccc1)c1ccc(O)cc1` was 0.295
